Taken from PubChem BioAssay (NCI).

Could you please report measured growth for the items listed next?
- Test system: A498 renal
- Assay details: NCI-60 one-dose screen, 48 h (100 = growth as untreated, 0 = no growth, -100 = all killed)
- Condition label: 10 µM unless noted
About 83,000 compounds went through this panel and 20% of them were active in at least one assay; those are over-represented in the sample as a whole. The source made the active and inactive calls. How the source made its calls: active means growth percent below 10; inactive means the rest.

Consider the reported growth for these compounds:
C[n+]1c2ccccc2c(NC2CCNCC2)c2[nH]c3ccccc3c21 = 51.7% (inactive)
CCC1=C(c2ccc(OC)cc2)C(C)(C)Oc2cc(O)c(CN3CCCC3)cc21 = 59.5% (inactive)
CCCCCCC/C(=N\N=C(N)N)c1ccc(O)cc1 = 46.6% (inactive)
CCCCCCCCCCCCCCCCN=C(CC(=O)O)C(=O)O = 95.6% (inactive)

Below are some compounds; for each one, tell me its growth.
1. C=CC1=C(C(=O)O)N2C(=O)[C@@H](NC(=O)/C(=N\O)c3csc(N)n3)[C@H]2SC1 (stereo in doubt)
2. c1ccc(N2CCN(c3nncc4ccccc34)CC2)nc1
3. Oc1ccc(Cc2ccc(O)c(C3CC(c4ccc(Cl)cc4)=NN3)c2)cc1C1CC(c2ccc(Cl)cc2)=NN1 (stereo unspecified)
4. CCCCCCCCCCCCCCCCCC1=NC(C)(C)CN1CCO
5. Cc1nnc(Nc2ccc(NC(=O)Nc3ccc(Cl)cc3)cc2)c2ccccc12
6. CCN1CCN(c2cc(-c3cn[nH]c3-c3cc(C)cc(OC)c3)nc(-c3cccnc3)n2)CC1
7. CN1CCCC1c1cccnc1 (stereo unspecified)

Out:
1. 95.1% (inactive)
2. 97.8% (inactive)
3. 33.8% (inactive)
4. 117% (inactive)
5. 35.4% (inactive)
6. 15.1% (inactive)
7. 94.1% (inactive)

###

- Test system: SK-MEL-2 melanoma
- Assay details: NCI-60 one-dose screen, 48 h
- Condition label: 10 µM unless noted
This is part of a sample that, as a whole, favours compounds with a hit. Of some 83,000 tested, about 20% had one in any assay. Calls of active or inactive are those of the source. Rule for the calls: active = growth percent below 10; inactive = the rest.
Write down the outcome that applies. Available outcomes: active, inactive

CC(C)c1ccc(C(=O)Nc2sc3c(CN(C)C)c(O)ccc3c2C(N)=O)cc1 = inactive
O=C(Cc1ccccn1)C(F)(F)C(F)(F)C(F)(F)F = inactive
COc1ccc(-c2nnc(COc3ccc(NC(=O)Nc4cc(C(F)(F)F)cc(C(F)(F)F)c4)cc3F)o2)cc1 = active

In: Answer briefly: the call reported for "N#CCNc1ccccc1N" in this assay.
Out: inactive

In: How was "COc1ccc2nc(-c3ccc(-n4cncc4-c4ccc(OC)c(N)c4)cc3)sc2c1" classified in this test?
Out: inactive

In: What did the test return for "O=[P@@]1(c2ccccc2)O[C@H](COCc2ccccc2)[C@@H](OCc2ccccc2)[C@H](OCc2ccccc2)[C@H]1NCc1ccccc1" ?
Out: inactive

In: Outcome logged for COc1cc([C@@H]2c3cc4c(cc3C(O[C@@H]3O[C@@H]5CO[C@@H](c6cccs6)OC5[C@H](O)[C@H]3O)C3COC(=O)[C@@H]32)OCO4)cc(OC)c1O (stereo partly specified) in this assay:
Out: active

In: Please indicate how the test categorized COc1ccc(-c2nn(-c3cccc(Cl)c3)cc2C2CC(c3ccccc3)=NN2C(C)=O)cc1 (stereo unspecified) .
Out: active

In: Returns: the outcome recorded for "CN(C(=O)c1ccccc1)N(C)C(=O)c1ccccc1" in this assay.
Out: inactive

In: For CC(=O)Oc1c(C)c(OC(C)=O)c2c(c1C(C)=O)OC1CC(=O)C(C(C)=O)=C(O)C21C (stereo unspecified) , which call appears in the assay record?
Out: inactive

In: Hello, I am checking results. What call was entered for "COc1ccc(-c2nn(-c3ccccc3)cc2/C=C2\SC(=S)N(CCc3ccc(O)cc3)C2=O)cc1" ?
Out: inactive

In: Please share the test call associated with "C[n+]1ccc(C#N)c2ccccc21" .
Out: inactive

In: Please share the test call associated with "ClC1=C(Cl)C(=C2C(Cl)=C(Cl)C(Cl)=C2Cl)C(Cl)=C1Cl" .
Out: inactive

In: What outcome does the record of this test show for "Cn1[nH]cc(/C=N/C(N)=O)c1=O" ?
Out: inactive

In: // param item: "Clc1ccc2nc(Cl)c3ccccc3c2c1" ; yields the recorded call
Out: inactive
